- target_or_test_system: Replicative DNA helicase DnaB (Mycobacterium tuberculosis, UniProt P9WMR3)
- assay_protocol: DnaB intein splicing inhibitors, dose response, biochemical, cell-free fluorescence (AID 449749)
- Type: functional
Active and inactive are the calls of the source.
quantity_name: AC50

Enquiry: Specify AC50 for COc1ccccc1N1CCN(CC(=O)c2c(C)[nH]c3cc(C)ccc23)CC1 and stop.
Return: 5.47 µM (active)

Enquiry: Note down AC50 recorded for CCCc1nc(SCC(=O)N2CCc3ccccc3C2)c2ccccc2n1
Return: 14.1 µM (active)

Enquiry: Report AC50 for CC1(C)N=C(SCC(=O)Nc2ccc(Cl)cc2Cl)C(c2ccccc2)=N1
Return: 10.7 µM (active)

Enquiry: Give the reported AC50 for this compound. CCc1nnc(NC(=O)c2nc(S(=O)(=O)Cc3ccccc3)ncc2Cl)s1
Return: 18.5 µM (active)

Enquiry: State, in one line, measured AC50 of Cc1oc2c(c1C(=O)NCc1cccnc1)C(=O)c1ccccc1C2=O
Return: 0.438 µM (active)

----------
Exercise: for every item that follows, state its recorded IC50.
- target_or_test_system: Voltage-gated N-type calcium channel alpha-1B subunit/Amyloid beta A4 precursor protein-binding family A member 1 (Homo sapiens, UniProt Q00975+Q02410)
- Sequence (Q00975 whole entry): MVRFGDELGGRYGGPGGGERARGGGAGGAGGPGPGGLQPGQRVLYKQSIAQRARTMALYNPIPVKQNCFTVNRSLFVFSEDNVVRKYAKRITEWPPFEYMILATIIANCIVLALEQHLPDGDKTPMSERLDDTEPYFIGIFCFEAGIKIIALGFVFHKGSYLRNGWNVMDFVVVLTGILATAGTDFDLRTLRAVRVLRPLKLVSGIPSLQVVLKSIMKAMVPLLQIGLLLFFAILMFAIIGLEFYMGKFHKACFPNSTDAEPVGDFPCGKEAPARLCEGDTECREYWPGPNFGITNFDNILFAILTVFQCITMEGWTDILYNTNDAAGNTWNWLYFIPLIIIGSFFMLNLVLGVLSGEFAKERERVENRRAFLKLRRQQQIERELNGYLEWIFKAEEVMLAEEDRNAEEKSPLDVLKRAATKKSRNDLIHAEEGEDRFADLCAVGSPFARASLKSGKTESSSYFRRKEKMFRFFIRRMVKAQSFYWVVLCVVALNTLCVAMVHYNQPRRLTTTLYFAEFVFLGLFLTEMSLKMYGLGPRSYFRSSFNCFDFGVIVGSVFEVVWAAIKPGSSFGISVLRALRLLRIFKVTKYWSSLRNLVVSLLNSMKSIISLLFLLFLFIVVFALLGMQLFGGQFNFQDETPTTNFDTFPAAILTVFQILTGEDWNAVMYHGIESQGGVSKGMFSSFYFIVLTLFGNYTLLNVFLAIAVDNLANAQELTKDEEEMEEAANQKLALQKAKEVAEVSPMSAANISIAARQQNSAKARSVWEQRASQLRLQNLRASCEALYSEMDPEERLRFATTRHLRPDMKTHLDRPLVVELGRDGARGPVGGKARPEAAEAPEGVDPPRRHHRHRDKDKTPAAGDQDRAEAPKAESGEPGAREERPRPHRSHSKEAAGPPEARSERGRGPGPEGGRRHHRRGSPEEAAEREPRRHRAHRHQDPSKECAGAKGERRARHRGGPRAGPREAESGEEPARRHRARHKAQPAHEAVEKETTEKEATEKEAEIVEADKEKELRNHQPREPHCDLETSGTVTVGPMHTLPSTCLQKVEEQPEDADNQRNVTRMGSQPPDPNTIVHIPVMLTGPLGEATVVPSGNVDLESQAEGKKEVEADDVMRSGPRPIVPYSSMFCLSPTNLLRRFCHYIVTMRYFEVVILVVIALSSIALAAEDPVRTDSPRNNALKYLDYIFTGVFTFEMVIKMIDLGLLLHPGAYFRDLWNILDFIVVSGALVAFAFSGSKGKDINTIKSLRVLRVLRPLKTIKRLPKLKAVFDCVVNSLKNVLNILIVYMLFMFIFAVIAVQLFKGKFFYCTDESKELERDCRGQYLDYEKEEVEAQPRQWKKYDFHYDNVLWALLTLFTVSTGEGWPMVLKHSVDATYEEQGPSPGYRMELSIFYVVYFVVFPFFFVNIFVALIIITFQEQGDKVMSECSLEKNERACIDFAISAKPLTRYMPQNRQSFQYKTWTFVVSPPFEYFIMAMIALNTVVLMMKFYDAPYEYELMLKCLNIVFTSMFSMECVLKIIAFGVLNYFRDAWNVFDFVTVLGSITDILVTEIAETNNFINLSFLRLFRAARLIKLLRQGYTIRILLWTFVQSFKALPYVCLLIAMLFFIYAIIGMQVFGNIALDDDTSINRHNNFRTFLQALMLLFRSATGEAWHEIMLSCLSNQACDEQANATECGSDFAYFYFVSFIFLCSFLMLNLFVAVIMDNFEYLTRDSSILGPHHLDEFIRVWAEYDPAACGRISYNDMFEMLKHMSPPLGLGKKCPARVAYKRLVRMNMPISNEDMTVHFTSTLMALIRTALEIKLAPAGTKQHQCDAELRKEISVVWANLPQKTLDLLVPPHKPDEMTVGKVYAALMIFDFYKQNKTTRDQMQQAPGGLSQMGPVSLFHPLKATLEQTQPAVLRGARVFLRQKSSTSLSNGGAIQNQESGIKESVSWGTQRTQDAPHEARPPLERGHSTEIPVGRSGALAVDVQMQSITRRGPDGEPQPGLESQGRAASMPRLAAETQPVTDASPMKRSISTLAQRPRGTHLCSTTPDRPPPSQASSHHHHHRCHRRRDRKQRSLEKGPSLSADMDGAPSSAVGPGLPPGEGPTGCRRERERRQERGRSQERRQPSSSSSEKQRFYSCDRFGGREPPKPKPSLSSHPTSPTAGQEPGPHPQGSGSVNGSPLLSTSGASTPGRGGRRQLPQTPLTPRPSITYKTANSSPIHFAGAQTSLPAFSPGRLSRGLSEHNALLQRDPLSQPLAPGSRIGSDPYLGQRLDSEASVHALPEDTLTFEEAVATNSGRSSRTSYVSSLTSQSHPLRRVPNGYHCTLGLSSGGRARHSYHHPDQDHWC
- Sequence (Q02410 whole entry): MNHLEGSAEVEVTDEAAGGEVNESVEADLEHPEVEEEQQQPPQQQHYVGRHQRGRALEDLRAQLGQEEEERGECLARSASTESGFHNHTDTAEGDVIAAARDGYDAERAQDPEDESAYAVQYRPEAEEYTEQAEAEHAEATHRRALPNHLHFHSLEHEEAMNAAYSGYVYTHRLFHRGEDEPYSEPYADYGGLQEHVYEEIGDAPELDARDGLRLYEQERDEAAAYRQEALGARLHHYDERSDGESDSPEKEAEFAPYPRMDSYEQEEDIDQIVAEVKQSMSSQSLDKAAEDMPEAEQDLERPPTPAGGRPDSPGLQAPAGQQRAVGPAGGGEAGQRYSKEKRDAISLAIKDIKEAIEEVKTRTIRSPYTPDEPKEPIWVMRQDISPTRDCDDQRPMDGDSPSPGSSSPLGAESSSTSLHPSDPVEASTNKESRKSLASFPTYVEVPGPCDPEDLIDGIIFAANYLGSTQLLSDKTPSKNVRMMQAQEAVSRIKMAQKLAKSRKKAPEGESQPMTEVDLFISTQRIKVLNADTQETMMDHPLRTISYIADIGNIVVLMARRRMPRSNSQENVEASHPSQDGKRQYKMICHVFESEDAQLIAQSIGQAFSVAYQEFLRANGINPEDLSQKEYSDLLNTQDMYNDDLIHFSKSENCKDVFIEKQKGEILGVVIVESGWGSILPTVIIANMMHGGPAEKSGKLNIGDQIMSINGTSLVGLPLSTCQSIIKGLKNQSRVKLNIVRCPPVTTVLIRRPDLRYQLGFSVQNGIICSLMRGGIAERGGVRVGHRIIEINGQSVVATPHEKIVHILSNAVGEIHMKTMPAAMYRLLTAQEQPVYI
- Type: protein assay
The source made the active and inactive calls.

Enquiry: Respond only with IC50 recorded for COc1cccc(/C=N/Nc2nn3cnnc3c3ccccc23)c1O
Return: 20.6 µM (active)

Enquiry: For the compound COc1ccc(NS(=O)(=O)c2cccc(C(=O)NNC(=O)c3cccn3C)c2)cc1 , give its reported IC50.
Return: 23.5 µM (active)

Enquiry: Note down IC50 recorded for CCOc1ccc(N2C(=O)CC(Sc3nnnn3-c3ccccc3)C2=O)cc1 (stereo unspecified)
Return: 13.4 µM (active)

Enquiry: Please supply the value of reported IC50 for the item O=[N+]([O-])c1ccc(-c2c[nH]c(S)n2)cc1
Return: 11.3 µM (active)

Enquiry: Identify measured IC50 corresponding to COc1cccc(N2C(=O)NC(=O)/C(=C\c3ccc([N+](=O)[O-])s3)C2=O)c1
Return: 13.5 µM (active)

Enquiry: Return reported IC50. Input compound: Cc1cccn2c(=O)c(/C=N/O)c(Nc3ccccc3F)nc12
Return: 11.4 µM (active)

----------
- Tested on: Vero
- assay_protocol: cells
- Assay type: functional, Chlorocebus sabaeus
- recorded_conditions: Chlorocebus sabaeus, Vero
The source made the active and inactive calls.
So I've got a bunch of compounds here, and I need their CC50 values.

Enquiry: Identify CC50 associated with the compound COc1cc(/C=C/C(=O)CC(=O)/C=C/c2ccc(O)c(OC)c2)ccc1O
Return: 19.9 µM (active)

Enquiry: Please give measured CC50 of the following entry: O=C(Cc1coc2ccc3ccccc3c12)Nc1nnc(C2CC2)s1
Return: > 25 µM (active)

Enquiry: State its CC50 for this compound: COC1CC(C)C(OC)c2cc(O)cc(c2O)NC(=O)C(C)=CC=CC(C)C(OC(N)=O)C(C)=CC(C)C1OC (centres undefined)
Return: 12.6 µM (active)

Enquiry: Please indicate CC50 recorded for O=C(CC1C(=O)NCCN1C(=O)Nc1ccc(C(F)(F)F)cc1)Nc1ccc(F)cc1 (centres undefined)
Return: > 25 µM (active)

----------
Can you tell me AC50 for the items I'm about to list?

Enquiry: Send back Cytochrome P450 2D6 (Homo sapiens, UniProt P10635) AC50 of Cc1cnc(CNc2ccnc(-c3cccnc3)n2)cn1 only.
Return: 25.1 µM (inconclusive)

Enquiry: Recall the reported AC50 of O=C1c2ccccc2NC(c2ccc3c(c2)OCO3)N1O (stereo not drawn) when tested on Cytochrome P450 2D6 (Homo sapiens, UniProt P10635).
Sequence (P10635 whole entry): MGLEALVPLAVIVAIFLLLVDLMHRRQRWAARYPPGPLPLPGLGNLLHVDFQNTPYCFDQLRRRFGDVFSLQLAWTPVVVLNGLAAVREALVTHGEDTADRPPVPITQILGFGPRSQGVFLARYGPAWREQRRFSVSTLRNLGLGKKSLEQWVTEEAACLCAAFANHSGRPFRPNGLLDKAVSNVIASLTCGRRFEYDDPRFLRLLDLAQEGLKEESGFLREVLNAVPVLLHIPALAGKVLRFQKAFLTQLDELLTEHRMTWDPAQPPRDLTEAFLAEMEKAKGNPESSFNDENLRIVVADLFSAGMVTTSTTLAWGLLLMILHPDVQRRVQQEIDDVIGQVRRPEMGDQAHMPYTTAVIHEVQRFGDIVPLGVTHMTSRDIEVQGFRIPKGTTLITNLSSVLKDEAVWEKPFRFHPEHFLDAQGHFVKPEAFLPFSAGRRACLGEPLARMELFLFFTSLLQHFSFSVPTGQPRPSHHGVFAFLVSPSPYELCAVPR
Return: 14.1 µM (inconclusive)

Enquiry: Fill: AC50 (Cytochrome P450 2D6 (Homo sapiens, UniProt P10635)) for this molecule CCc1c2c(nc3cccc(SC)c13)COC2
Return: 39.8 µM (inconclusive)

Enquiry: Tell me AC50 of N#Cc1c(N2CCCCC2)nc(N)c2c(N)nc3c(c12)CC(c1ccccc1)O3 (stereo not drawn) when tested on Cytochrome P450 2D6 (Homo sapiens, UniProt P10635).
Return: 25.1 µM (inconclusive)

Enquiry: Using Cytochrome P450 2D6 (Homo sapiens, UniProt P10635) as the test system, report measured AC50 of COc1nccc(-c2c(-c3ccc(F)cc3)ncn2C2CCC(O)CC2)n1 (stereo not drawn) .
Return: 12.6 µM (inconclusive)

Enquiry: Give AC50 only, for O=C(C/C=N/OCc1ccc(Cl)cc1Cl)c1ccc(Cl)cc1 , using Cytochrome P450 2D6 (Homo sapiens, UniProt P10635) data.
Return: 17.8 µM (inconclusive)

Enquiry: Give AC50; test system Cytochrome P450 2D6 (Homo sapiens, UniProt P10635); molecule Cc1[nH]c2ccccc2c1/C=C/c1cc[n+](C)cc1
Return: 17.8 µM (inconclusive)

Enquiry: Fetch value of AC50 on Cytochrome P450 2D6 (Homo sapiens, UniProt P10635) for CCCCCC(=O)Nc1cccc(-c2nc3ncccc3o2)c1 .
Return: 22.4 µM (inconclusive)

Enquiry: Tell me AC50 of O=C(c1csnn1)N1CCC2(CC1)CN(C(c1ccccc1)c1ccccc1)C2 when tested on Cytochrome P450 2D6 (Homo sapiens, UniProt P10635).
Return: 12.6 µM (inconclusive)

Enquiry: For Cytochrome P450 2D6 (Homo sapiens, UniProt P10635), give the measured AC50 of the entry COc1ccc(CNc2nc(-c3ccc(N(C)C)cc3)nc3ccccc23)c(OC)c1
Return: 25.1 µM (inconclusive)

Enquiry: Provide AC50, recorded with Cytochrome P450 2D6 (Homo sapiens, UniProt P10635), of N#Cc1ccccc1-c1ccc2ncnc(NCCN3CCOCC3)c2c1
Return: 39.8 µM (inconclusive)

Enquiry: GET AC50 | system: Cytochrome P450 2D6 (Homo sapiens, UniProt P10635) | item: Cc1ccc(OCc2ccc(C(=O)Nc3nccs3)o2)cc1C
Return: 15.8 µM (inconclusive)

Enquiry: Specify AC50 for COc1ccc(C(=O)N2CCC3(CC2)CCN(C(c2ccccc2)c2ccccc2)CC3)cc1 , system Cytochrome P450 2D6 (Homo sapiens, UniProt P10635).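 Also: CYP2D6 member of a cytochrome P450 panel assay.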
Return: 12.6 µM (inconclusive)

----------
- target_or_test_system: Protein RecA (Mycobacterium tuberculosis, UniProt P9WHJ3)
- Sequence (P9WHJ3 whole entry): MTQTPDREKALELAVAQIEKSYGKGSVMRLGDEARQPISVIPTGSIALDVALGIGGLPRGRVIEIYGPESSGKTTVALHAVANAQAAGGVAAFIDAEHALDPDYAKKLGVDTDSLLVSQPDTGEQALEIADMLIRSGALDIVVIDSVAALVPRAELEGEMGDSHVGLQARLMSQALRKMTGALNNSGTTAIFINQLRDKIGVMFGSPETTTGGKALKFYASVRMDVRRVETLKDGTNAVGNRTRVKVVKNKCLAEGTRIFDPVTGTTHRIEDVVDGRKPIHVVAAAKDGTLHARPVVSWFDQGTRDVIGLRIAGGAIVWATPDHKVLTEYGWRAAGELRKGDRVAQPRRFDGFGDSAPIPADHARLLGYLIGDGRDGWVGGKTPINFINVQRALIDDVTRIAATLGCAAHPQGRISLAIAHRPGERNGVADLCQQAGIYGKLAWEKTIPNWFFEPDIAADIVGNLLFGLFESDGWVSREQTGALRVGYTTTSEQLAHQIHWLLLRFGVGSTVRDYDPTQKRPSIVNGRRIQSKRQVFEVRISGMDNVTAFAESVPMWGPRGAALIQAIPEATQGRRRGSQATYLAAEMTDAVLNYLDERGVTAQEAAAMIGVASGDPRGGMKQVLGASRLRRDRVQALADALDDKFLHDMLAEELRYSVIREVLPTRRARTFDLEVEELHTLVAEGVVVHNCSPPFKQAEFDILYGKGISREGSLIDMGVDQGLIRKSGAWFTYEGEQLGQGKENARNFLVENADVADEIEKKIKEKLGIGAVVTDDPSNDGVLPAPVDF
- assay_protocol: Fluorescence Cell-Free Homogeneous Dose Retest to Identify Inhibitors of RecA-Intein Splicing Activity. [Related pubchem assays (depositor defined):AID2097, AID2223, AID489010, AID492950]
- Type: functional
Active and inactive are the calls of the source.
Parameter call: string, one of active, inactive

Enquiry: For CC1(C)N=C(SCC(=O)Nc2ccc(Cl)cc2Cl)C(c2ccccc2)=N1 , what call appears in the results of this test?
Return: active

Enquiry: What did this assay record as the result for Cc1oc2c(c1C(=O)NCc1cccnc1)C(=O)c1ccccc1C2=O ?
Return: active

Enquiry: Look up the recorded call for CN1C(=O)/C(=N\OC(=O)c2cccc3ccccc23)c2ccccc21 in this test.
Return: active

Enquiry: Tell me the recorded outcome of this test for CCn1nc(C)c(C2C(C#N)=C(N)Oc3[nH]nc(C)c32)c1C (configuration not stated) .
Return: active

Enquiry: Which outcome was assigned to O=S(=O)(Nc1ccc(O)c2ccccc12)c1ccc(OC(F)(F)F)cc1 in this test?
Return: active

Enquiry: Could you check what this test reported for CCCc1nc(SCC(=O)N2CCc3ccccc3C2)c2ccccc2n1 ?
Return: active

Enquiry: // outcome(item) with item = CC(C)[C@H](NC(=O)Nc1ccc(Oc2ccccc2)cc1)C(=O)O
Return: inactive

Enquiry: Hey, what did the test say about CCCCC(O)(CCCC)C(=O)NN(C(=O)CCl)c1ccccc1 ?
Return: active

Enquiry: Given CC(=O)c1cc(O)c2ccccc2c1O , state the outcome it received in this test.
Return: active

Enquiry: Tell me the assay call for Cc1ccc(NC(=O)CCl)cc1S(=O)(=O)N1CCCCCC1 please.
Return: active

Enquiry: // param item: COc1cc2c(cc1OC)-c1c3c(cc4c1[C@@H](C2)N(C)CC4)OCO3 ; yields the recorded call
Return: active

Enquiry: Per the assay record, what outcome was assigned to CCc1nnc(NC(=O)c2nc(S(=O)(=O)Cc3ccccc3)ncc2Cl)s1 ?
Return: active

Measured values drawn from ChEMBL document CHEMBL1201862 for this set.
